Reference for the values: ChEMBL document CHEMBL1961873

Biological target: Tyrosine-protein kinase Fgr (Homo sapiens);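 note: value reported as mean kinase inhibition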
Settings: at 1 µM
Would you please tag the item Yes when its inhibition is 20% or above, and No when it is below?

INSERT INTO results (compound_string, experimental_target, category_label) VALUES
  ('NC(=O)c1sc(-n2cnc3ccccc32)cc1OCc1ccccc1Br', 'Tyrosine-protein kinase Fgr (Homo sapiens)', 'No'),
  ('CS(=O)(=O)CCNCc1nc(-c2ccc3ncnc(Nc4ccc(OCc5cccc(C(F)(F)F)c5)cc4)c3c2)cs1', 'Tyrosine-protein kinase Fgr (Homo sapiens)', 'No'),
  ('CCS(=O)(=O)c1ccc(OC)c(Nc2ncc(-c3cccc(OC)c3)o2)c1', 'Tyrosine-protein kinase Fgr (Homo sapiens)', 'Yes'),
  ('Cc1ccc2c(-c3ccnc(Nc4cccc(C(F)(F)F)c4)n3)c(-c3ccccc3)nn2n1', 'Tyrosine-protein kinase Fgr (Homo sapiens)', 'Yes');
